Every entry's value here was drawn from patent US20260078130A1.

Documented pEC50 across a set of compounds
biological target: human enzyme NAMPT (full length) (Homo sapiens, UniProt P43490); construct: human enzyme NAMPT (full length); assay: NMN fluorescence biochemical assay (stimulation of NMN synthesis by NAMPT); conditions: NMN fluorescence assay, purified human NAMPT 100 nM; concentration giving half-maximal activation; read-out: Enzymatic EC50
Sequence (P43490 whole entry): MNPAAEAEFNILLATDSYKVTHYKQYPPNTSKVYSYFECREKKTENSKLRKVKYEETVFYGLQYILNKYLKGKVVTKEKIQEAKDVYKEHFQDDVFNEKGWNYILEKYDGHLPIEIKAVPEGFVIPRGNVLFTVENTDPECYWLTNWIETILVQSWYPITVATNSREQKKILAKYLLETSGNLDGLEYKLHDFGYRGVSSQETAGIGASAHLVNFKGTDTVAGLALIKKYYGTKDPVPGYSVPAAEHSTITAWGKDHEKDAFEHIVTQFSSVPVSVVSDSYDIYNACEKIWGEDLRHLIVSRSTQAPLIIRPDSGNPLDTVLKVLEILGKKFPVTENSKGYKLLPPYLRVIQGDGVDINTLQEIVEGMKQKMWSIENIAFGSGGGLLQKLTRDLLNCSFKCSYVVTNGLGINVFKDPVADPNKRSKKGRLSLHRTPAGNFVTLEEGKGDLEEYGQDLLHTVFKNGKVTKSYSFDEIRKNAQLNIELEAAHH
pEC50: −log10 of the molar value.

Reference set, count: 5
CN(C)C1CN(c2ccc3c(c2)C(Cc2c(Cl)cnn2C)N(CC2CC4(CNC(=O)O4)C2)C3=O)C1 (centres unmarked) [Compound 497] :: > 6.30
Cc1ccnc(C#N)c1CC1c2cccc(F)c2C(=O)N1CC1CC2(CNC(=O)O2)C1 (centres unmarked) [Compound 428] :: 5.30 to 6.30
Cc1ccnc(C#N)c1CC1c2ccc(F)cc2C(=O)N1CC1CC2(CNC(=O)O2)C1 (centres unmarked) [Compound 449] :: 5.30 to 6.30
Cn1ncc(Cl)c1CC1c2ccccc2C(=O)N1Cc1ccc(Br)cc1 (centres unmarked) [Compound 575] :: 5.30 to 6.30
Cn1ncc(Cl)c1CC1c2ccccc2C(=O)N1C[C@H]1C[C@@]2(CNC(=O)O2)C1 (some centres unmarked) [Compound 483] :: 5.30 to 6.30

IN: // pEC50 lookup, key: Cc1ccc2c(c1)C(Cc1c(Cl)cnn1C)N(CC1CC3(CNC(=O)O3)C1)C2=O (centres unmarked) [Compound 485]
OUT: 5.30 to 6.30

IN: // pEC50 lookup, key: Cn1ncc(Cl)c1CC1c2ccccc2C(=O)N1Cc1nn[nH]c1F (centres unmarked) [Compound 630]
OUT: ≤ 5.30

IN: // pEC50 lookup, key: COc1ccc(CN2C(=O)c3c(F)cc(Cl)cc3C2Cc2c(Cl)cnn2C)cc1 (centres unmarked) [Compound 581]
OUT: 5.30 to 6.30

IN: // pEC50 lookup, key: C/C(=C\c1c[nH]nn1)CN1C(=O)c2ccccc2C1Cc1ncccc1Br (centres unmarked) [Compound 416]
OUT: > 6.30

IN: // pEC50 lookup, key: O=C1c2ccccc2C(Cc2ncccc2Br)N1Cc1cc(F)c2[nH]nnc2c1 (centres unmarked) [Compound 329]
OUT: > 6.30

IN: // pEC50 lookup, key: Cn1ncc(Cl)c1CC1c2ccccc2C(=O)N1C[C@@H]1C[C@@H]1c1c[nH]nn1 (relative stereo) [Compound 604]
OUT: ≤ 5.30

IN: // pEC50 lookup, key: Cn1ncc(Cl)c1CC1c2ccccc2C(=O)N1CC1CC(=O)C1 (centres unmarked) [Compound 556]
OUT: ≤ 5.30

IN: // pEC50 lookup, key: N#Cc1nc2cc(CN3C(=O)c4ccccc4C3Cc3ncccc3Br)ccc2[nH]1 (centres unmarked) [Compound 366]
OUT: 5.30 to 6.30

IN: // pEC50 lookup, key: Cn1ncc(Cl)c1CC1c2ccccc2C(=O)N1Cc1ccc2c(c1)nnn2C (centres unmarked) [Compound 557]
OUT: 5.30 to 6.30

IN: // pEC50 lookup, key: Cn1ncc(Cl)c1CC1c2c(F)cccc2C(=O)N1CC1CC2(CNC(=O)O2)C1 (centres unmarked) [Compound 511]
OUT: 5.30 to 6.30

IN: // pEC50 lookup, key: COc1c(F)cc(CN2C(=O)c3ccccc3C2Cc2c(Cl)cnn2C)cc1F (centres unmarked) [Compound 560]
OUT: ≤ 5.30

IN: // pEC50 lookup, key: C/C(=C\CN1C(=O)c2ccccc2C1Cc1ncccc1Br)c1c[nH]nn1 (centres unmarked) [Compound 425]
OUT: > 6.30

====

molecular target: human enzyme NAMPT (full length) (Homo sapiens, UniProt P43490); construct: human enzyme NAMPT (full length); test: NMN fluorescence biochemical assay (stimulation of NMN synthesis by NAMPT); conditions: NMN fluorescence assay, purified human NAMPT 100 nM; concentration giving half-maximal activation; read-out: Enzymatic EC50
pEC50: −log10 of the molar value.
Documented pEC50 across a set of compounds

Reference set, count: 3
Cn1ncc(Cl)c1CC1c2ccccc2C(=S)N1CC1CC2(CNC(=O)O2)C1 (stereo not shown) :: > 6.30
[2H]C1([2H])NC(=O)OC12CC(CN1C(=O)c3ccccc3C1Cc1c(Cl)cnn1C)C2 (stereo not shown) :: 5.30 to 6.30
Cn1ncc(Cl)c1CC1c2ccccc2C(C)(C)N1CC1CC2(CNC(=O)O2)C1 (stereo not shown) :: > 6.30

Next up:
IN: human enzyme NAMPT (full length) (Homo sapiens, UniProt P43490) / pEC50 / COc1ccc(CN2C(=O)c3ccccc3C2Cc2c(C#N)ccnc2C#N)cc1 (stereo not shown) : value?
OUT: 5.30 to 6.30

====

Documented pEC50 across a set of compounds
molecular target: human enzyme NAMPT (full length) (Homo sapiens, UniProt P43490); construct: human enzyme NAMPT (full length); assay: NMN fluorescence biochemical assay (stimulation of NMN synthesis by NAMPT); conditions: NMN synthesis by purified human NAMPT (100 nM); concentration giving half-maximal activation; read-out: Enzymatic EC50
pEC50: −log10 of the molar value.

COc1cccc(CC2c3ccccc3C(=O)N2Cc2ccc3[nH]c(=O)oc3c2)c1 (stereo not drawn) :: 5.30 to 6.30
O=C1c2ccc(N3CCOCC3)cc2CN1Cc1ccc2[nH]c(=O)oc2c1 :: ≤ 5.30

IN: // pEC50 lookup, key: CC1c2cc(CN3CCCC3)ccc2C(=O)N1Cc1ccc2[nH]c(=O)oc2c1 (stereo not drawn)
OUT: ≤ 5.30

IN: // pEC50 lookup, key: O=C1c2cnccc2CN1Cc1ccc(O)cc1
OUT: ≤ 5.30

IN: // pEC50 lookup, key: CC1c2cc(CN3CCC3)ccc2C(=O)N1Cc1ccc2[nH]c(=O)oc2c1 (single isomer, unassigned)
OUT: ≤ 5.30

IN: // pEC50 lookup, key: COc1ccc2c(c1)CN(Cc1ccc(O)cc1)C2=O
OUT: 5.30 to 6.30

====

tested on: endogenous NAMPT in U2OS cells; experiment: Cellular NAD+ modulation assay (NAD/NADH-Glo, U2OS cells); type: cell-based; conditions: Homo sapiens, 24 hours incubation, cellular NAD+
measuredEndpoint: EC50

Cn1nnc(Cl)c1CC1c2ccccc2C(=O)N1CC1CC2(CNC(=O)O2)C1 (stereo not shown) [Compound 489] :: 500 to 5000 nM
COc1ccc(CN2C(=O)c3ccccc3C2Cc2c(C#N)ccnc2C#N)cn1 (stereo not shown) [Compound 598] :: 500 to 5000 nM
Cn1ncc(Cl)c1C[C@@H]1c2ccccc2C(=O)N1C[C@H]1C[C@]2(CNC(=O)O2)C1 [Compound 405] :: 5000 to 50000 nM
COc1nn(C)c(CC2c3ccccc3C(=O)N2CC2CC3(CNC(=O)O3)C2)c1Cl (stereo not shown) [Compound 451] :: < 500 nM
Cn1nc(C#N)c(Cl)c1CC1c2ccccc2C(=O)N1CC1CC2(CNC(=O)O2)C1 (stereo not shown) [Compound 495] :: < 500 nM

IN: // EC50 lookup, key: O=C1c2ccccc2C(Cc2ncccc2Br)N1Cc1ccc(=O)[nH]c1 (stereo not shown) [Compound 322]
OUT: 500 to 5000 nM

IN: // EC50 lookup, key: COc1ncc(CN2C(=O)c3ccccc3C2Cc2c(Cl)cnn2C)o1 (stereo not shown) [Compound 603]
OUT: 500 to 5000 nM

IN: // EC50 lookup, key: O=C1c2ccccc2C(Cc2ncccc2Br)N1CC1CCc2[nH]c(=O)oc2C1 (stereo not shown) [Compound 400]
OUT: 500 to 5000 nM

IN: // EC50 lookup, key: COc1ccc(CN2C(=O)c3ccc(Cl)cc3C2Cc2c(C)ncnc2C#N)cn1 (stereo not shown) [Compound 639]
OUT: 500 to 5000 nM

====

molecular target: human enzyme NAMPT (full length) (Homo sapiens, UniProt P43490); construct: human enzyme NAMPT (full length); assay: NMN fluorescence biochemical assay (stimulation of NMN synthesis by NAMPT); conditions: fold change of maximal activation compared to DMSO
measuredEndpoint: Enzymatic Emax

Reference set, count: 6
N#CCC1c2ccccc2C(=O)N1Cc1ccc(O)cc1 (centres unmarked) [Compound 27] :: A (A>3)
Cn1nc(CN2CCOCC2)c(Cl)c1CC1c2ccccc2C(=O)N1CC1CC2(CNC(=O)O2)C1 (centres unmarked) [Compound 522] :: B (3≥B>2)
O=C1c2cc(Br)ccc2CN1Cc1ccc(O)cc1 [Compound 19] :: A (A>3)
NC(=O)c1cnc(CN2C(=O)c3ccccc3C2Cc2ncccc2Br)s1 (centres unmarked) [Compound 280] :: B (3≥B>2)
N#Cc1nccc(Br)c1CC1c2ccccc2C(=O)N1Cc1ccc2[nH]nnc2c1 (centres unmarked) [Compound 282] :: B (3≥B>2)
O=C1c2sc(Br)nc2CN1Cc1ccc(O)cc1 [Compound 447] :: B (3≥B>2)

IN: // Enzymatic Emax lookup, key: Cn1ncc(Cl)c1CC1c2ccccc2C(=S)N1CC1CC2(CNC(=O)O2)C1 (centres unmarked) [Compound 482]
OUT: B (3≥B>2)

IN: // Enzymatic Emax lookup, key: O=C1c2ccc(N3CCOCC3)cc2CN1Cc1ccc2[nH]c(=O)oc2c1 [Compound 47]
OUT: B (3≥B>2)
